- Tgt: Gastrin/cholecystokinin type B receptor (Mus musculus, UniProt P56481)
- Sequence (P56481 whole entry): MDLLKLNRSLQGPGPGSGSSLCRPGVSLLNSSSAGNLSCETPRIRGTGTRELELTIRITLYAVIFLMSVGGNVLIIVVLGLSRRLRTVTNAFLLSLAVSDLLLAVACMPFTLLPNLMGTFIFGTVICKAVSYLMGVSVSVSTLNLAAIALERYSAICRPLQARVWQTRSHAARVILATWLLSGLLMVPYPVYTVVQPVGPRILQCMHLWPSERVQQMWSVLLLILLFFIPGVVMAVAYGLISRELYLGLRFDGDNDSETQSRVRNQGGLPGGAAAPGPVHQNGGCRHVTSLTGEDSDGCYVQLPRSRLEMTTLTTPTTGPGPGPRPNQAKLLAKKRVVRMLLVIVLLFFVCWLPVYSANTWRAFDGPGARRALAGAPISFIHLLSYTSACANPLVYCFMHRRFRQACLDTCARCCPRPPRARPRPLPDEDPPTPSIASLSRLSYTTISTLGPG
Documented Ki across a set of compounds

>>> observed("COc1ccc(C(CN(C)C)C2(O)CCCCC2)cc1 (configuration not stated)")
"> 1 µM"

Next, consider the following compound.
**Q:** Data request, read-out Ki, for CNCC[C@H](Oc1cccc2ccccc12)c1cccs1
**A:** > 1 µM

====

Below: a set of entries, each annotated with reported Ki.
- Tgt: Adenosine receptor A1 (Rattus norvegicus, UniProt P25099)
- Sequence (P25099 whole entry): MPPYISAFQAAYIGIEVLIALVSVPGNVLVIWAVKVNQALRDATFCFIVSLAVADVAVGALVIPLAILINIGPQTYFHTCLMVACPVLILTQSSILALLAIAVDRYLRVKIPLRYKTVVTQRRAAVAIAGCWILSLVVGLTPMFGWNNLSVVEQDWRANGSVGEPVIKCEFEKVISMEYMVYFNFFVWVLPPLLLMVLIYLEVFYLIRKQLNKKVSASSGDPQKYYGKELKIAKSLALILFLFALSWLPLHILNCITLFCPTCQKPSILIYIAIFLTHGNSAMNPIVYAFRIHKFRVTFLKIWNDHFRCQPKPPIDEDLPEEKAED

>>> observed("CNCC[C@H](Oc1cccc2ccccc12)c1cccs1 [DULOXETINE]")
"> 1000 nM"

// next item, Ki requested
**Q:** Give its Ki value. Item: COc1ccc(C(CN(C)C)C2(O)CCCCC2)cc1 (configuration not stated) [NSC_62923]
**A:** > 1000 nM

====

- Tgt: Alpha-1A adrenergic receptor (Homo sapiens, UniProt P35348)
- Sequence (P35348 whole entry): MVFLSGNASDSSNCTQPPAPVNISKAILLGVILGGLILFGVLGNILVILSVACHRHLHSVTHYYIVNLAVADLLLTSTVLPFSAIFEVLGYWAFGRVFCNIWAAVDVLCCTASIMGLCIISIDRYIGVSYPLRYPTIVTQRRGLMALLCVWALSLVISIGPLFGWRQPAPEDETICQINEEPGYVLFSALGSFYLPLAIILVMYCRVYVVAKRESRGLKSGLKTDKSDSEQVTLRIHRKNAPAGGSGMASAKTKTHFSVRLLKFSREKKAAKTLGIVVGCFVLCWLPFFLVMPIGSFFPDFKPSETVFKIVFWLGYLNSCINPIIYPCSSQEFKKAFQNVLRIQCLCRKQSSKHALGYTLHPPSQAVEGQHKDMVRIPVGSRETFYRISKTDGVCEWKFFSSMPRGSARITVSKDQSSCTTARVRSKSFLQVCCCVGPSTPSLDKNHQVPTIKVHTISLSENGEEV
Measured parameter: Ki

**Q:** Value lookup for Ki; key = COc1ccc(C(CN(C)C)C2(O)CCCCC2)cc1 (stereo unspecified)
**A:** > 10 µM

====

- Tgt: Adenosine receptor A2b (Bos taurus)
- Sequence (Q1LZD0 whole entry): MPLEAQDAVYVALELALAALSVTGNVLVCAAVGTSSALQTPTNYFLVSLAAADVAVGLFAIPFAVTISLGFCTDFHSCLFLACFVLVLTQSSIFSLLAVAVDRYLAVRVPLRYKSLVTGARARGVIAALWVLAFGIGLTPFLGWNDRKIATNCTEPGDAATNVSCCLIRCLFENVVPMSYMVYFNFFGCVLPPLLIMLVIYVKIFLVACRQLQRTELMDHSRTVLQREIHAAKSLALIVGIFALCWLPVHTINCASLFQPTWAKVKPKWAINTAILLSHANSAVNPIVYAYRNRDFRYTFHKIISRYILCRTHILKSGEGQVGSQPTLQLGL
compounds and their reported pKi
Scale: negative log10 of molar concentration, which is what pKi denotes.

>>> observed("CNCC[C@H](Oc1cccc2ccccc12)c1cccs1 [DULOXETINE]")
6.00

**Q:** Given COc1ccc(C(CN(C)C)C2(O)CCCCC2)cc1 (configuration not stated) [NSC_62923] , state its recorded pKi.
**A:** 6.00

====

Here's a batch of molecules along with measured Ki for Delta-type opioid receptor (Rattus norvegicus, UniProt P33533).
The response must be a number in nM with no trailing unit.

>>> observed("COc1ccc(C(CN(C)C)C2(O)CCCCC2)cc1 (configuration not stated)")
1000

Let's switch to this molecule now.
**Q:** Which value of Ki has been reported for CNCC[C@H](Oc1cccc2ccccc12)c1cccs1 in the records?
**A:** 1000

====

Form: system (5-hydroxytryptamine receptor 6 (Homo sapiens)), quantity (Ki), values below.
Provide the reading as a plain figure in µM.

>>> observed("CNCC[C@H](Oc1cccc2ccccc12)c1cccs1 [DULOXETINE]")
0.419

**Q:** Request body: readout Ki, system 5-hydroxytryptamine receptor 6 (Homo sapiens), query COc1ccc(C(CN(C)C)C2(O)CCCCC2)cc1 (configuration not stated) [NSC_62923] . Return the value.
**A:** 2.79

====

pKi: −log10 of the molar value.
// pKi collected for Sodium channel protein type 1 subunit alpha (Rattus norvegicus)

>>> observed("COc1ccc(C(CN(C)C)C2(O)CCCCC2)cc1 (configuration not stated)")
"< 6.00"

As a next step, examine the compound that follows.
**Q:** Find the recorded pKi belonging to CNCC[C@H](Oc1cccc2ccccc12)c1cccs1 and report it.
**A:** < 6.00

====

- Tgt: UniProt P08908
- Sequence (P08908 whole entry): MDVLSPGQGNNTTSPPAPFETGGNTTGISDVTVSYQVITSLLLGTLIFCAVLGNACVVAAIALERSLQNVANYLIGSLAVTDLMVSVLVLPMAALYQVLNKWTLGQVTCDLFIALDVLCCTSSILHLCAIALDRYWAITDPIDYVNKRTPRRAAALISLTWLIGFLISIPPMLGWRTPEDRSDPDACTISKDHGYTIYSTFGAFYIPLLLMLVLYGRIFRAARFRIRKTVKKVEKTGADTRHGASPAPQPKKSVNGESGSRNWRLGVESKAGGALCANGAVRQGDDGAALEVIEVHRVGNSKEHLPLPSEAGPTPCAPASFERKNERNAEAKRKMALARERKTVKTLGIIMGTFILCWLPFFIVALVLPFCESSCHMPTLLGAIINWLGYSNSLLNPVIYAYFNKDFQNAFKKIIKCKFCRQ
Measured parameter: pKi
In textbook form, pKi equals minus log to base ten of the concentration in mol/L.

**Q:** Which pKi is listed for CNCC[C@H](Oc1cccc2ccccc12)c1cccs1 [DULOXETINE] ?
**A:** 5.30

====

Examples of compounds with documented Ki follow.
- Tgt: Glycine receptor subunit alpha-1 (Rattus norvegicus, UniProt P07727)
- Sequence (P07727 whole entry): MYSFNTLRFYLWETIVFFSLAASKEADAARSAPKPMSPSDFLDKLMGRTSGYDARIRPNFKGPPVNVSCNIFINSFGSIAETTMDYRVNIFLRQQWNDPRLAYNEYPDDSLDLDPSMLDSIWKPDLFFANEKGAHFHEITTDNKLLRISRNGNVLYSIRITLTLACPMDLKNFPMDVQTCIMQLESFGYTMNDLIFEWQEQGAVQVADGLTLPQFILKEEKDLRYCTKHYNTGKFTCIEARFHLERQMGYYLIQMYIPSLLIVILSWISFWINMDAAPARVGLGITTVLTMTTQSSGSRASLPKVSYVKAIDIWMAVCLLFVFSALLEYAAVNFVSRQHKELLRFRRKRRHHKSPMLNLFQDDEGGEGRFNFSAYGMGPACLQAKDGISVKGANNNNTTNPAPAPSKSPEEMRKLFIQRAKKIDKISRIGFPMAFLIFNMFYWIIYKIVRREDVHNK
Field format: number, assumed nM, no unit text.

>>> observed("COc1ccc(C(CN(C)C)C2(O)CCCCC2)cc1 (configuration not stated) [NSC_62923]")
1000

**Q:** Query (compound): CNCC[C@H](Oc1cccc2ccccc12)c1cccs1 [DULOXETINE] ; field requested: Ki
**A:** 1000

====

Heads up, these molecules all have pKi values measured for Gamma-aminobutyric acid receptor subunit alpha-1 (Bos taurus).
pKi: −log10 of the molar value.

>>> observed("COc1ccc(C(CN(C)C)C2(O)CCCCC2)cc1 (configuration not stated)")
"< 6.00"

Please examine the following record next.
**Q:** Which pKi is reported with Gamma-aminobutyric acid receptor subunit alpha-1 (Bos taurus) for this entry: CNCC[C@H](Oc1cccc2ccccc12)c1cccs1 ?
**A:** < 6.00

====

# key: entry, value: Ki
- Tgt: D(1A) dopamine receptor (Rattus norvegicus)
- Sequence (P18901 whole entry): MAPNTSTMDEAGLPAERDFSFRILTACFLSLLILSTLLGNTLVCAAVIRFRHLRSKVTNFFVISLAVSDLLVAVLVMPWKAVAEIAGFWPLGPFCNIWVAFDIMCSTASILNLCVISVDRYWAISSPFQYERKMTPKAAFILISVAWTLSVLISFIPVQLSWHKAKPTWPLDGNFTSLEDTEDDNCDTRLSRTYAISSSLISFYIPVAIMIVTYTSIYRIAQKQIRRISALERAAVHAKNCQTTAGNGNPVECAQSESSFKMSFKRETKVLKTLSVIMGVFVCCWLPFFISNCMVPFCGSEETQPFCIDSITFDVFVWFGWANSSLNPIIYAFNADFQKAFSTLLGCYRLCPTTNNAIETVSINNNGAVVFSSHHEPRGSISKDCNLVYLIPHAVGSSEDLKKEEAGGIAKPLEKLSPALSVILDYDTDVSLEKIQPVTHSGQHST
Give just the number in nM; leave the unit off.

>>> observed("CNCC[C@H](Oc1cccc2ccccc12)c1cccs1 [DULOXETINE]")
1000

// moving on: another record for Ki
**Q:** Under D(1A) dopamine receptor (Rattus norvegicus): Ki value of COc1ccc(C(CN(C)C)C2(O)CCCCC2)cc1 (configuration not stated) [NSC_62923] ?
**A:** 1000

====

pKi: −log10 of the molar value.
Parameter pKi, tested on Glutamate receptor 3 (Rattus norvegicus, UniProt P19492), listed per item.
Sequence (P19492 whole entry): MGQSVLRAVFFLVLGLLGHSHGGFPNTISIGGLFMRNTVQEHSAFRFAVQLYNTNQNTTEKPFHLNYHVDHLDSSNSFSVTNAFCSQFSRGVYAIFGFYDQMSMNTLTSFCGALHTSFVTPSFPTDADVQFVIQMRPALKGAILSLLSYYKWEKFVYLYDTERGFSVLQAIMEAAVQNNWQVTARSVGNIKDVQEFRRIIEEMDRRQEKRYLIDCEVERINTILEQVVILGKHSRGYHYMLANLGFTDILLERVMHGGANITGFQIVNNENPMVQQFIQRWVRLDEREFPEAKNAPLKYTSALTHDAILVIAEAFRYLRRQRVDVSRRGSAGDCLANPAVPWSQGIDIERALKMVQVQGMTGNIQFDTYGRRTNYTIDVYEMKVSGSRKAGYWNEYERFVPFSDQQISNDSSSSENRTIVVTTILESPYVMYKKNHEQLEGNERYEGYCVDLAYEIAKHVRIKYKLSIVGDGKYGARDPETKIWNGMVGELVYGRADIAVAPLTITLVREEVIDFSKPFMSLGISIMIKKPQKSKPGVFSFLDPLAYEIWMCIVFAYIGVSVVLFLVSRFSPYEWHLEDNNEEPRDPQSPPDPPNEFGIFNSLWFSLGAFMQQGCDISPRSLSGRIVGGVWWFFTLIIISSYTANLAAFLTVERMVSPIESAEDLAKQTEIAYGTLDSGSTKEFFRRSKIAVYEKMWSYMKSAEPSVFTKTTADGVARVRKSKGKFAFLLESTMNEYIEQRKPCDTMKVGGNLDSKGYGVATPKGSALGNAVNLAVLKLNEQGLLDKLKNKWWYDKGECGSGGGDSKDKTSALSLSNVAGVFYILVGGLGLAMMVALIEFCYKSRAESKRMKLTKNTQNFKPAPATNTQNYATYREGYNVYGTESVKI

>>> observed("COc1ccc(C(CN(C)C)C2(O)CCCCC2)cc1 (configuration not stated) [NSC_62923]")
"< 6.00"

Attention now shifts to the item below.
**Q:** Form field: reported pKi of CNCC[C@H](Oc1cccc2ccccc12)c1cccs1 [DULOXETINE]
**A:** < 6.00

====

- Tgt: Alpha-bungarotoxin (Bungarus multicinctus, UniProt P60615)
- Sequence (P60615 whole entry): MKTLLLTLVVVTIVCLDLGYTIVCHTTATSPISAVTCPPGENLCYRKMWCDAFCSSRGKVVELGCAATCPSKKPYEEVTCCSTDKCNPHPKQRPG
Measured parameter: pKi
Quick note: pKi values are minus log10 of concentrations in mol/L.

**Q:** Look at this molecule and give its reported pKi. COc1ccc(C(CN(C)C)C2(O)CCCCC2)cc1 (configuration not stated)
**A:** 6.00

**Q:** State the recorded pKi for this entry: CNCC[C@H](Oc1cccc2ccccc12)c1cccs1
**A:** 6.00

====

Here's a batch of compounds along with measured pKi for Kappa-type opioid receptor (Cavia porcellus, UniProt P41144).
Schema: pKi number; meaning minus log10 of the concentration expressed in molar units.

>>> observed("CNCC[C@H](Oc1cccc2ccccc12)c1cccs1")
6.00

Pending compound:
**Q:** I am curious: what pKi value has been reported for COc1ccc(C(CN(C)C)C2(O)CCCCC2)cc1 (configuration not stated) ?
**A:** 6.00

====

pKi: −log10 of the molar value.
Listed here: compounds with reported pKi for Sodium channel protein type 2 subunit alpha (Rattus norvegicus, UniProt P04775).

>>> observed("CNCC[C@H](Oc1cccc2ccccc12)c1cccs1 [DULOXETINE]")
"< 6.00"

Attention now shifts to the item below.
**Q:** Give pKi (Sodium channel protein type 2 subunit alpha (Rattus norvegicus, UniProt P04775)) of the following compound: COc1ccc(C(CN(C)C)C2(O)CCCCC2)cc1 (configuration not stated) [NSC_62923]
**A:** < 6.00
